- TARGET_OR_SYSTEM: AhR (Homo sapiens, UniProt P35869)
- Construct: endogenous in cells
- Sequence (P35869 11-848): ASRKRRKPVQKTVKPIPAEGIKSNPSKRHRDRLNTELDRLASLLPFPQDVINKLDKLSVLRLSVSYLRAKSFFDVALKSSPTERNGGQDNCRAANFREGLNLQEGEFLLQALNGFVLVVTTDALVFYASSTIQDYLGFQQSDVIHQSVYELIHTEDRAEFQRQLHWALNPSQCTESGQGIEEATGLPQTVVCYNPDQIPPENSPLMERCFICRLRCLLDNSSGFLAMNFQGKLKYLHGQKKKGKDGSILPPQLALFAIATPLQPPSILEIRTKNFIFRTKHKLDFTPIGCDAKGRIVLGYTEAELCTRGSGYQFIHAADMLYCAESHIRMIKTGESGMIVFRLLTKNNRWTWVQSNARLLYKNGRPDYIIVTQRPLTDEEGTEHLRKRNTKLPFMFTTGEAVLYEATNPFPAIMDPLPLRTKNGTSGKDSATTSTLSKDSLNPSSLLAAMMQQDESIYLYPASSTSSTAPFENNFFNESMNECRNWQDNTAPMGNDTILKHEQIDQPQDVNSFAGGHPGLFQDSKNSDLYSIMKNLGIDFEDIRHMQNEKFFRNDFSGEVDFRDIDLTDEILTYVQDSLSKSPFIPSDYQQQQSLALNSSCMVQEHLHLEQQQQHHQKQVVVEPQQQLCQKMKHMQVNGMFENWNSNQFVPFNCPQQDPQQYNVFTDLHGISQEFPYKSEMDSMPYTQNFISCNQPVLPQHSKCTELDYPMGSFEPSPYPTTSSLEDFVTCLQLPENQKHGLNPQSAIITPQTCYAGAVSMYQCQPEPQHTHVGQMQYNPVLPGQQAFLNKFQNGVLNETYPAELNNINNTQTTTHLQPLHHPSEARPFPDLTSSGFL
- ASSAY_NAME: AhR antagonism in U937 cells (Promega P450-Glo assay)
- CONDITION_INFO: inhibition of 300 μM KYNA response, 24 hrs, CYP1A1 activity readout (Luciferin-CEE), arithmetic mean of pIC50
OUTCOME_MEASURE: IC50

Completed entries (count: 8):
MOLECULE | TARGET_OR_SYSTEM | RESULT
Cc1cccc2nc(-c3ccc(NC(=O)c4ccnn4C)cc3)oc12 [Example 6] | AhR (Homo sapiens, UniProt P35869) | 39.8 nM
Cc1cc(NC(=O)c2ccnn2C)ccc1-c1nc2cccc(C)c2o1 [Example 9] | AhR (Homo sapiens, UniProt P35869) | 7.94 nM
CNC(=O)c1cccc2nc(-c3ccc(NC(=O)c4ccnn4C)cc3)oc12 [Example 4] | AhR (Homo sapiens, UniProt P35869) | 79.4 nM
Cn1nccc1C(=O)Nc1ccc(-c2nc3cccc(Cl)c3[nH]2)cc1 [Example 19] | AhR (Homo sapiens, UniProt P35869) | 145 nM
COCCn1nccc1C(=O)Nc1ccc(-c2nc3ccccc3o2)cc1 [Example 2] | AhR (Homo sapiens, UniProt P35869) | 100 nM
Cc1cc(NC(=O)c2ccnn2C)ccc1-c1nc2c(C)cccc2o1 [Example 23] | AhR (Homo sapiens, UniProt P35869) | 17.4 nM
CCn1c(-c2ccc(NC(=O)c3ccnn3C)cc2)nc2ccccc21 [Example 1] | AhR (Homo sapiens, UniProt P35869) | 63.1 nM
Cn1nccc1C(=O)Nc1ccc(-c2nc3cccc(CO)c3o2)cc1 [Example 13] | AhR (Homo sapiens, UniProt P35869) | 100 nM

get_value(item= CCNC(=O)c1cccc2nc(-c3ccc(NC(=O)c4ccnn4C)cc3)oc12 [Example 15] , readout=IC50) returns 398 nM

Recorded result, Cn1nccc1C(=O)Nc1ccc(-c2nc3cccc(C(C)(C)O)c3o2)cc1 [Example 18] , IC50: 363 nM
